assay: self-splicing fitness, log relative to wild type (ln ratio); higher = more splicing; Tetrahymena group I intron in knt gene, E. coli kanamycin selection, DiMSum; sequences stand for … in CUCUCU…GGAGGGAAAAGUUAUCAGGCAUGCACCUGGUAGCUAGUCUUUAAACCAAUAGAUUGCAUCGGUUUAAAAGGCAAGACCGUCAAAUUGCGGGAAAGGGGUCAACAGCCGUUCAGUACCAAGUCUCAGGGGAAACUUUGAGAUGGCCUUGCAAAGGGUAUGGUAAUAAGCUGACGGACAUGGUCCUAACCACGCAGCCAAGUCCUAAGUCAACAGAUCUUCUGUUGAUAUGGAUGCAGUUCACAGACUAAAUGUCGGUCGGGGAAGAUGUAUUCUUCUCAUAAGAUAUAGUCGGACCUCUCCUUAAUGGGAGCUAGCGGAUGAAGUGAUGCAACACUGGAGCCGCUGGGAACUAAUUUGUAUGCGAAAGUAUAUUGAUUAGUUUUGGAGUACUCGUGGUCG; details: 37 °C;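 note: selection with 25 µg/mL kanamycin versus none on LB agar overnight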
Readout Type: self-splicing fitness (ln)
In your answer, state the number alone without any accompanying words.

The examples below pair each entry with its known result.
CGAGAGCAAUAUUACGCAUG | -2.02
AGCUAGCAAUAUUACGACCG | -1.06
CGGGAGCAAUAUUACGGUCG | -2.43
UUUAAGCAAUAUUACGGAGG | -2.18
AAUAAGCAAUAUUACGCAUG | -0.645
AGAAAGCAAUAUUACGGGUU | -1.61
CGCGAGCAAUAUUACGCUCU | -0.833
AGUAAGCAAUAUUACGAACU | -0.813

Recorded self-splicing fitness (ln) for GGGAAGCAAUAUUACGAUCA , please?
-0.0795

Next sequence up: CAUGAGCAAUAUUACGGUCU
-1.2

Next sequence up: CCAGAGCAAUAUUACGGUGG
-3.31

Next sequence up: AGUGAGCAAUAUUACGUACU
-1.15

Next sequence up: AUUUAGCAAUAUUACGUAUC
-2.15

Next sequence up: GGGAAGCAAUAUUACGGAAG
-1.47
